Can you tell me IC50 for the items I'm about to list?
System: M. tuberculosis H37Rv growth inhibition
assay-explanation: M. tuberculosis H37Rv growth inhibitors, H37Rv strain (AID 1626)

Fill in the blank: the reported IC50 of CC1CCCN(c2ccc([N+](=O)[O-])s2)C1 (centres undefined) is ____. 5.81 µM

Look up IC50 for this compound: CCNC(=O)COC(=O)c1ccc(-c2nc3ccccc3s2)s1 7.63 µM

What value of measured IC50 is listed for N#CC(C(=O)C12CC3CC(CC(C3)C1)C2)c1nc2ccccc2[nH]1 (centres undefined) ? 9.8 µM

Others:
Fill in: IC50 of CC1CC(C)(C)Nc2ccc(OC(=O)c3ccco3)cc21 (centres undefined) is ___ 15.9 µM

* * *

Exercise: for every item that follows, state its recorded IC50.
Tested on: M. tuberculosis H37Rv growth inhibition
assay-explanation: M. tuberculosis H37Rv growth inhibitors, H37Rv strain (AID 1626)

Illustrative cases are given below, each with its answer.
Field request: IC50 | item: COC(=O)c1ccc(Cn2cc(C(F)(F)F)cc([N+](=O)[O-])c2=O)cc1 29.9 µM

Form field: reported IC50 of CCn1ccnc1CN(C)Cc1cn(-c2ccc(C)cc2)nc1-c1cccc(C)c1 2.73 µM

For each entry beneath this line, provide reported IC50.
1. COc1cc(OC)c2c(-c3ccccc3)cc(=O)oc2c1C(CCN1CCCC(C)C1)c1ccc2c(c1)OCO2 (centres undefined)
2. c1ccc(-c2nc(NCCCn3ccnc3)c3ccccc3n2)cc1

5.64 µM
5.87 µM

For each of the items listed, what is its IC50?
1. O=C1C2C3C=CC(C3)C2C(=O)N1c1ccc(-c2nc3ccccc3c(=O)o2)cc1 (centres undefined)
2. Oc1ccccc1-c1nc(/C=C/c2ccccc2)nn1-c1ccccc1
3. CCOc1ccc(Nc2nc(N)nc(CN3CCN(c4ccccc4F)CC3)n2)cc1
4. Nc1nc(-c2cccc(Br)c2)cs1
5. Cc1ccccc1C(=O)Nc1nnc(-c2ccc(F)cc2)o1

["9.33 µM", "16.3 µM", "7.83 µM", "23.8 µM", "1.11 µM"]

For each of the compounds below, note its IC50.
1. N#CCc1ccc(NC(=O)/C=C/c2ccc([N+](=O)[O-])o2)cc1
2. CC[C@H](CO)NCCN[C@H](CC)CO
3. COc1ccc(N)c2c1C(=O)c1ccccc1C2=O

["< 0.391 µM", "0.778 µM", "17.5 µM"]

* * *

Tested on: M. tuberculosis H37Rv growth inhibition
assay-explanation: M. tuberculosis H37Rv growth inhibitors, H37Rv strain (AID 1626)
measurement-parameters: measured here: IC90 against H37Rv
parameter: log10 IC90 (log10 of the value in µM)
Could you please treat all values as log10 of IC90 in µM?

Solved cases (7 shown):
Given the compound OCC#CCSc1nnc(-c2ccc(Br)cc2)o1 , what is its reported log10 IC90? 1.25

Entry OCCN1CCN(c2nc(-c3ccccc3)nc3c2oc2ccccc23)CC1 : reported log10 IC90 = ? 0.92

If you can, please state the reported log10 IC90 value of Cc1cc(C)nc(/N=C(\N)Nc2ccc(-c3ccccc3)cc2)n1 . 1.04

State the recorded log10 IC90 for this entry: O=C1c2ccccc2-n2c1nc1ccccc1c2=O -0.22

Returns the measured log10 IC90 for the input compound. Input: Cc1ccc(CSc2nnc(CCCCCNC(=O)OC(C)(C)C)o2)cc1 1.13

Which measured log10 IC90 value corresponds to O=C(Nc1ccc(-n2nncc2-c2ccco2)cc1)c1cc2ccccc2oc1=O ? 0.82

Would you mind telling me what log10 IC90 value was observed for O=C(/C=C/c1cccc([N+](=O)[O-])c1)c1cccs1 ? 1.11

More entries:
Quick one: log10 IC90 for COc1ccc2cc(-c3[nH]ncc3CN3CCCN(c4ccccc4)CC3)ccc2c1 ? 1.19

* * *

Tested on: M. tuberculosis H37Rv growth inhibition
assay-explanation: M. tuberculosis H37Rv growth inhibitors, H37Rv strain (AID 1626)
parameter: IC50

# count of solved cases: 3
Value wanted: IC50 (M. tuberculosis H37Rv growth inhibition) of entry CN(C)CCCn1c(SCC(=O)Nc2nc(-c3cccc(Br)c3)cs2)nc2ccccc2c1=O 5.61 µM

Look up IC50 with M. tuberculosis H37Rv growth inhibition for this molecule: CCc1c(O)nc(SCC(=O)Nc2ccc3c(c2)CCC3)[nH]c1=O 57.4 µM

Return IC50 measured with M. tuberculosis H37Rv growth inhibition given this molecule: O=C(CSc1nc2ccccc2o1)NCC(=O)c1ccccc1 8.36 µM

Please state, for each entry, its recorded IC50.
1. N#C/C(=C/c1ccc(N2CCCCC2)o1)C(=O)NCCc1c[nH]c2ccccc12
2. CCOc1ccc2nc(/N=C/c3c(C)[nH]n(-c4ccc(C)cc4)c3=O)sc2c1
3. Nc1nc2ccccc2n1C(=O)c1ccc(F)cc1

["41 µM", "9.04 µM", "1.93 µM"]

Hey, can you go through the list below and give me IC50 for every item?
1. Cc1nnc(NC(=O)c2ccc3ccccc3c2)o1
2. CCOC(=O)c1ccc(N2CSC3=C(C#N)C(c4ccc(OC)cc4OC)CC(=O)N3C2)cc1 (stereo not given)
3. COc1ccc(C(=O)CCNc2ccc(C)c(Cl)c2)cc1
4. O=C(Nc1nnc(-c2ccccc2)o1)c1ccc(Cl)cc1

["0.719 µM", "41.8 µM", "58.9 µM", "< 0.195 µM"]

Answer for every listed entry: what is its IC50? The entries follow.
1. CC(C)COC(=O)c1ccc2c(c1O)C(=O)c1ccccc1C2=O
2. Cc1ccc(-c2ccc(/C=C/C(=O)c3ccccc3)o2)cc1
3. COc1ccc(Cn2c(SCc3cc(C)ccc3C)nc3cc(OC)c(OC)cc3c2=N)cc1

2.51 µM
19.6 µM
2.59 µM

Quick request: IC50 for each listed item, please.
1. Cc1cc(OCCCCCn2ccnc2)cc(C)c1Cl
2. Cc1ccc2c(c1)c1c(n2CC(O)CNC2CCCCC2)CCCC1 (stereo not given)

1. 4.17 µM
2. 6.83 µM

* * *

Exercise: state measured IC90 for each of the compounds provided.
System: M. tuberculosis H37Rv growth inhibition
assay-explanation: M. tuberculosis H37Rv growth inhibitors, H37Rv strain (AID 1626)
measurement-parameters: measured here: IC90 against H37Rv

Please review the following examples before continuing.
Give its IC90 value. Item: CCCCOC(=O)c1ccc(NC(=O)C(=O)NCCN(CC)CC)cc1 > 100 µM

Find the recorded IC90 belonging to CCOC(=O)c1ccc(NC(=O)CCc2nc(-c3ccccc3)no2)cc1 and report it. > 100 µM

Given the entry CC(C)c1ccc(NC(=O)c2snc3ccc(Cl)cc23)cc1 , report its measured IC90. > 100 µM

May I ask what IC90 has been recorded for O=C(Nc1cccc2ccccc12)c1ccc([N+](=O)[O-])s1 ? > 100 µM

I have 6 compounds here; please give me IC90 for each one.
1. CC(=O)Nc1ccc(NC(=O)c2ccc(C3SCC(=O)N3CCc3ccccc3)cc2)cc1 (configuration not stated)
2. COC(=O)c1cc(-c2ccc(OC)c(OC)c2)on1
3. COc1ccc(NC(=O)CSc2ncn(-c3ccccc3)n2)cc1Cl
4. CCC(=O)Nc1ccc2ccccc2c1
5. COc1ccc(CCNC(=O)c2ccc(CN3CCC(Cc4ccccc4)CC3)cc2)cc1
6. CCCCc1ccc(NC(=O)CC(C)C)cc1

1. > 100 µM
2. > 100 µM
3. > 100 µM
4. > 100 µM
5. > 100 µM
6. > 100 µM

For every item in the list below, what is its measured IC90?
1. CSc1ccc(NC(=O)N2CCN(c3nc4ccccc4s3)CC2)cc1
2. CCCc1ccc(-c2cc(C(=O)NC3=NCCS3)c3ccccc3n2)cc1
3. CCOc1ccc(-n2cc(-c3ccccc3)c3c(SC(C)C(=O)OC)ncnc32)cc1 (configuration not stated)
4. O=C(COc1ccccc1[N+](=O)[O-])c1ccccc1
5. O=C(c1cc2c(F)cccc2s1)N1CCCC1
6. Cc1cccc(Oc2ccc(N)cc2)c1
7. CCOC(=O)c1ccc(NC(=O)c2n[nH]c(=O)c3ccccc23)cc1

1: > 100 µM; 2: > 100 µM; 3: > 100 µM; 4: > 100 µM; 5: > 100 µM; 6: > 100 µM; 7: > 100 µM

* * *

Test system: M. tuberculosis H37Rv growth inhibition
assay-explanation: M. tuberculosis H37Rv growth inhibitors, H37Rv strain (AID 1626)
measurement-parameters: measured here: Vero cell cytotoxicity
parameter: CC50

Solved entries:
Entry Cc1cc(C)n(-c2nc(NC(C)(C)C)nc(NC(C)(C)C)n2)n1 , system M. tuberculosis H37Rv growth inhibition: what CC50 was measured? > 40 µM

Hi! What's the reported CC50 for Cc1sc(-n2c(C)cc(/C=N/n3cnnc3)c2C)c(C#N)c1C on M. tuberculosis H37Rv growth inhibition? > 40 µM

Could you now consider this next compound?
Notebook: pull reported CC50 for M. tuberculosis H37Rv growth inhibition, entry CC(=O)Nc1ccc(Nc2cc(C)nc3c(-c4ccccc4)c(C)nn23)cc1 > 40 µM

Values from PubChem BioAssay AID1626
